Where these numbers come from: patent US20030129629A1

- Tested on: 60 cancer cell lines (NCI 60 cancer cell line series)
- Protocol Notes: NCI-DTP in vitro cancer screen, sulforhodamine B (SRB) growth inhibition, 48 hour exposure
- Type: cell-based, human
- Study Conditions: Breast T-47D CL5014
Counter-ions that a name gives are not always drawn.
classification of cell line as Low(1), Medium(2), High(3) sensitivity to compound listing for selected compounds.
Keep the answer to the number alone.

Previously resolved entries follow.
>>> reported_measurement("COc1cc([C@@H]2c3cc4c(cc3[C@@H](O[C@@H]3O[C@@H]5CO[C@@H](c6cccs6)O[C@H]5[C@H](O)[C@H]3O)[C@H]3COC(=O)[C@H]23)OCO4)cc(OC)c1O [Teniposide]")
2
>>> reported_measurement("Sc1ncnc2nc[nH]c12")
2
>>> reported_measurement("N.N.[Cl][Pt][Cl] [cisplatin, cis-Diamminedichloroplatinum (II), reference compound]")
1
>>> reported_measurement("CC[C@]1(O)C[C@H]2CN(CCc3c([nH]c4ccccc34)[C@@](C(=O)OC)(c3cc4c(cc3OC)N(C=O)[C@H]3[C@@](O)(C(=O)OC)[C@H](OC(C)=O)[C@]5(CC)C=CCN6CC[C@]43[C@@H]65)C2)C1 [Vincristine sulfate]")
1
>>> reported_measurement("N[C@@H](Cc1ccc(N(CCCl)CCCl)cc1)C(=O)O")
2

Identify the measured classification of cell line as Low(1), Medium(2), High(3) sensitivity to compound of COc1cc([C@@H]2c3cc4c(cc3[C@@H](O[C@@H]3O[C@@H]5CO[C@@H](C)O[C@H]5[C@H](O)[C@H]3O)[C@H]3COC(=O)[C@H]23)OCO4)cc(OC)c1O [Etoposide] for 60 cancer cell lines (NCI 60 cancer cell line series). 3

Identify the measured classification of cell line as Low(1), Medium(2), High(3) sensitivity to compound of CN(Cc1cnc2nc(N)nc(N)c2n1)c1ccc(C(=O)N[C@@H](CCC(=O)O)C(=O)O)cc1 [Methotrexate] for 60 cancer cell lines (NCI 60 cancer cell line series). 1

Identify the measured classification of cell line as Low(1), Medium(2), High(3) sensitivity to compound of "COc1cccc2c1C(=O)c1c(O)c3c(c(O)c1C2=O)C[C@@](O)(C(=O)CO)C[C@@H]3O[C@H]1C[C@H](N)[C@H](O)[C@H](C)O1" for 60 cancer cell lines (NCI 60 cancer cell line series). 2

###

- Test system: 60 cancer cell lines (NCI 60 cancer cell line series)
- Protocol Notes: NCI-DTP in vitro cancer screen, sulforhodamine B (SRB) growth inhibition, 48 hour exposure
- Format: cell-based, human
- Study Conditions: Renal RXF-393 CL9016
sensitivity classification Low(1)/Medium(2)/High(3) listing for selected compounds.

Previously resolved entries follow.
>>> reported_measurement("CN(Cc1cnc2nc(N)nc(N)c2n1)c1ccc(C(=O)N[C@@H](CCC(=O)O)C(=O)O)cc1 [Methotrexate]")
1
>>> reported_measurement("O=C(O)CCCc1ccc(N(CCCl)CCCl)cc1 [Chlorambucil]")
2
>>> reported_measurement("N.N.[Cl][Pt][Cl] [cisplatin, cis-Diamminedichloroplatinum (II), reference compound]")
2

Below: the item to evaluate.
Give the measured sensitivity classification Low(1)/Medium(2)/High(3) of O=C1c2c(O)ccc(O)c2C(=O)c2c(NCCNCCO)ccc(NCCNCCO)c21 [Mitoxantrone] . 2

###

classification of cell line as Low(1), Medium(2), High(3) sensitivity to compound listing for selected compounds.
- Tested on: 60 cancer cell lines (NCI 60 cancer cell line series)
- Protocol Notes: NCI-DTP in vitro cancer screen, sulforhodamine B (SRB) growth inhibition, 48 hour exposure
- Assay type: cell-based, human
- Study Conditions: NSCLC HOP-92 CL1029
Where a name gives a salt, the structure may show the parent alone.
Keep the answer to the number alone.

Previously resolved entries follow.
>>> reported_measurement("CC[C@]1(O)C[C@@H]2CN(CCc3c([nH]c4ccccc34)[C@@](C(=O)OC)(c3cc4c(cc3OC)N(C)[C@H]3[C@@](O)(C(=O)OC)[C@H](OC(C)=O)[C@]5(CC)C=CCN6CC[C@]43[C@@H]65)C2)C1 [Vinblastine sulfate]")
2
>>> reported_measurement("CC[C@]1(O)C[C@H]2CN(CCc3c([nH]c4ccccc34)[C@@](C(=O)OC)(c3cc4c(cc3OC)N(C=O)[C@H]3[C@@](O)(C(=O)OC)[C@H](OC(C)=O)[C@]5(CC)C=CCN6CC[C@]43[C@@H]65)C2)C1 [Vincristine sulfate]")
2
>>> reported_measurement("CN(Cc1cnc2nc(N)nc(N)c2n1)c1ccc(C(=O)N[C@@H](CCC(=O)O)C(=O)O)cc1 [Methotrexate]")
1

Below: the item to evaluate.
Give the measured classification of cell line as Low(1), Medium(2), High(3) sensitivity to compound of "Sc1ncnc2nc[nH]c12" . 2
